- systemName: Stb5 (UniProt P38699)
- Sequence: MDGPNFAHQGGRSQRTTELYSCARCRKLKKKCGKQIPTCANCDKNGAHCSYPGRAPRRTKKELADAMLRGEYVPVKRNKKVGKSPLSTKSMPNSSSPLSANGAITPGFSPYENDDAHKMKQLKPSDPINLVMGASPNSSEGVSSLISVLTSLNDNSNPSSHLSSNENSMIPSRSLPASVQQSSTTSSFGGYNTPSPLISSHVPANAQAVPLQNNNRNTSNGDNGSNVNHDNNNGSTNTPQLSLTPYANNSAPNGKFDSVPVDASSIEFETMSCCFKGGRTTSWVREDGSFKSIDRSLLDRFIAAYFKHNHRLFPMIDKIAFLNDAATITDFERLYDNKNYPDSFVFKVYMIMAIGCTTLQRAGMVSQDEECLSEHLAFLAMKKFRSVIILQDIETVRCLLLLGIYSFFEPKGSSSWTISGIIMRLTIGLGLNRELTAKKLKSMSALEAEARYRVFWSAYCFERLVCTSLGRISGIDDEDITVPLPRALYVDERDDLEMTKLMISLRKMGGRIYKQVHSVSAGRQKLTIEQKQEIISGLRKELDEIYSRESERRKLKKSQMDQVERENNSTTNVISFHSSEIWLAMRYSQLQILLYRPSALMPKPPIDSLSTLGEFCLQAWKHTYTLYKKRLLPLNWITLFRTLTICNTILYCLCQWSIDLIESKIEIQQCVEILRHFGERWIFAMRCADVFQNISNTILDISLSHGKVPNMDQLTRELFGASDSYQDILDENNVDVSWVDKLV
- assayProcedure: PBM E-score (8-mer binding enrichment) (E-score (-0.5 to 0.5)); higher = stronger / more preferred TF binding
- setupConditions: protein concentration: 200 nM; construct: GST-full length
Whole data set: some 33,000 sequences, median “E-score (-0.5 to 0.5)” near -0.054, cut for the highest 2% near 0.35. Only a selection was taken, and the highest values are over-represented in it overall.
# label = True if PBM E-score >= 0.1 else False

Solved entries (count: 6):
{"macromoleculeSequence": "AGCACCTG", "systemName": "Stb5 (UniProt P38699)", "labelValue": "False"}
{"macromoleculeSequence": "GCCGCCCC", "systemName": "Stb5 (UniProt P38699)", "labelValue": "True"}
{"macromoleculeSequence": "GCCCCCCC", "systemName": "Stb5 (UniProt P38699)", "labelValue": "False"}
{"macromoleculeSequence": "ACCGCCCG", "systemName": "Stb5 (UniProt P38699)", "labelValue": "True"}
{"macromoleculeSequence": "CCCCGCCC", "systemName": "Stb5 (UniProt P38699)", "labelValue": "True"}
{"macromoleculeSequence": "ACCGCCCC", "systemName": "Stb5 (UniProt P38699)", "labelValue": "True"}

Could you verify whether the entry AAAGTCCT shows PBM E-score of no less than 0.1?
True

Determine whether measured PBM E-score meets or exceeds 0.1 for GGCTAGTA
False

Dear colleague, could you confirm whether CATAGAAG has PBM E-score at or above 0.1?
False

hey, is PBM E-score for this one >= 0.1? ACCCGCCC
True

Reported PBM E-score reaches at least 0.1 for GATTCTCC ?
True

###

- systemName: Stb5 (UniProt P38699)
- Sequence: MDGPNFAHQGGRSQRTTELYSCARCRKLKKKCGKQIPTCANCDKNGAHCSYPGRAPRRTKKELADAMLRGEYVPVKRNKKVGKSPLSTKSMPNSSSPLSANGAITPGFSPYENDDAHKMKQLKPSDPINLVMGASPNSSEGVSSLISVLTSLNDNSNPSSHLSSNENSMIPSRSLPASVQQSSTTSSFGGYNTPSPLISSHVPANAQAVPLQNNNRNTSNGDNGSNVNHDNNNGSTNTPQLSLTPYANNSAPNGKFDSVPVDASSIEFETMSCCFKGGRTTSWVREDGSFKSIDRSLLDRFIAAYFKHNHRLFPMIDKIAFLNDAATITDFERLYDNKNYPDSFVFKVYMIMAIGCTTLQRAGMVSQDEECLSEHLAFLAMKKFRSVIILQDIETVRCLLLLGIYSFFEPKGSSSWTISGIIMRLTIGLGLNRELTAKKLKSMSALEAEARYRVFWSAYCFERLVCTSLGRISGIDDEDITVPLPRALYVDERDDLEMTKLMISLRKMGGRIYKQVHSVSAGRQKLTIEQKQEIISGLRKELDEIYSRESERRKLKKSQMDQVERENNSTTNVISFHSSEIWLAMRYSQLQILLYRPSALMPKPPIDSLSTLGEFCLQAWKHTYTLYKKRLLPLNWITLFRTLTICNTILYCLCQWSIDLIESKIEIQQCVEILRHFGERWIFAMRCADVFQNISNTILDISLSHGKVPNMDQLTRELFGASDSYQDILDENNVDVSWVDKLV
- assayProcedure: PBM E-score (8-mer binding enrichment) (E-score (-0.5 to 0.5)); higher = stronger / more preferred TF binding
- setupConditions: protein concentration: 200 nM; construct: GST-full length
In all, about 33,000 sequences were measured (“E-score (-0.5 to 0.5)”: median about -0.054, highest 2% from about 0.35 on). The full list was thinned out, with the highest values kept by preference.
Would you mind labelling by PBM E-score? At or over 0.07 is Fulfilled, under is Not fulfilled.

Check out these entries, answers already filled in.
{"macromoleculeSequence": "CGGCCTCA", "labelValue": "Fulfilled"}
{"macromoleculeSequence": "ATACATGG", "labelValue": "Not fulfilled"}
{"macromoleculeSequence": "CACAACGG", "labelValue": "Fulfilled"}

Is PBM E-score at least 0.07? Consider CTAAACCC
Fulfilled

Is PBM E-score for GGGATTTA at or above 0.07?
Fulfilled
